B1: Pistol ribozyme (parent)
chain: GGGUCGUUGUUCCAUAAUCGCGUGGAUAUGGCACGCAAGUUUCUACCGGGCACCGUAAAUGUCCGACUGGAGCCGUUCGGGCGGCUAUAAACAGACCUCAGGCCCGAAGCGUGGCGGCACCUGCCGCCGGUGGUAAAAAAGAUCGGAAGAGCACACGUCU

# Variants of: B1
# METHOD: aptazyme ON/OFF ratio, guanine; higher = stronger switching; co-transcriptional cleavage with and without guanine
PROPERTY: aptazyme ON/OFF ratio
Numbers only.

Solved cases (5 shown):
VARIANT_ID: U7C U8C G9C C13G
aptazyme ON/OFF ratio: 1.09
--
VARIANT_ID: U7G U8C G9A U10C U11A C12G C13U
aptazyme ON/OFF ratio: 1.33
--
VARIANT_ID: U8A G9A U11C C12A C13G
aptazyme ON/OFF ratio: 1.23
--
VARIANT_ID: U7G U8C G9A U10G U11G C12G C13G
aptazyme ON/OFF ratio: 1.2
--
VARIANT_ID: U7A U8A G9C U10A C13U
aptazyme ON/OFF ratio: 1.18

Field: aptazyme ON/OFF ratio. Fill in for each record below.
1. U8A G9A U10C U11C C12A
2. U7G U8C U10G C12A
3. U7C U8G G9A U10A U11G C12A C13A
4. G9U U10A C12A

Ans:
1.08
1.33
1.13
1.21
